Tgt: Concanavalin-A (Canavalia ensiformis)
Run Description: compounds binding concanavalin A lectin – biochemical, small-molecule microarray, Alexa647 label, 635 nm, artefact control for SMM control protein annotation, primary screen (AID 1127);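 note: z combines 667 nm emission intensity with signal-to-noise across three replicate slides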
Condition Summary: ConA-A647 binding fluorescence, higher = more signal
Measured Attribute: composite z-score

- Molecule: "COc1ccc(C#Cc2ccc3c(c2)[C@]2(C(=O)N3)[C@H](C(=O)N3CCc4cc(OC)c(OC)cc4C3)[C@H]3C(=O)O[C@H](c4ccccc4)[C@H](c4ccccc4)N3[C@@H]2c2ccc(OCCO)cc2)cc1"
  Measured Attribute: "composite z-score"
  Recorded Number: 1.07
- Molecule: "COC(=O)[C@@]1(Cc2ccc(OC)cc2)[C@H]2c3cc(C(=O)N(C)C)n(CCSCCO)c3C[C@H]2CN1C(=O)c1ccccc1"
  Measured Attribute: "composite z-score"
  Recorded Number: 1.13
- Molecule: "CN1C(=O)C2C(C1=O)C1C=C(c3ccc(CO)cc3)C2C(C2CC2)N1Cc1sc2ccccc2c1Cl (stereo not given)"
  Measured Attribute: "composite z-score"
  Recorded Number: 1.21
- Molecule: "[N-]=[N+]=NCc1ccccc1[C@@H]1OC(c2ccc(OCCCO)cc2)=N[C@]1(Cc1ccccc1)C(=O)O"
  Measured Attribute: "composite z-score"
  Recorded Number: 0.802
- Molecule: "COc1ccc([Si](C)(C)[C@H]2[C@H](CC(=O)N3Cc4ccccc4C[C@H]3CO)O[C@@]3(C(=O)N(Cc4cccc(I)c4)c4ccccc43)[C@@H]2C)cc1"
  Measured Attribute: "composite z-score"
  Recorded Number: 0.891
- Molecule: "COc1cc2c(cc1O)C(c1ccc(CN3CCCC3)cc1)N(Cc1sc3ccccc3c1Cl)CC2 (stereo not given)"
  Measured Attribute: "composite z-score"
  Recorded Number: 1.11
- Molecule: "C/C=C/[C@H](CCn1cc([C@H](O)c2ccccc2)nn1)[Si](C)(C)c1ccc(OC)cc1"
  Measured Attribute: "composite z-score"
  Recorded Number: -0.971
- Molecule: "O=C1C2C=CC(C(O)CCc3ccccc3)N(Nc3ccccc3)C2C(=O)N1c1ccccc1 (stereo not given)"
  Measured Attribute: "composite z-score"
  Recorded Number: 1.2
- Molecule: "COCC1C2CC[C@H]3C(OCc4ccc(F)cc4C(F)(F)F)OC[C@]4(C)[C@H]3C2=C(CN4C(=O)OC(C)(C)C)[C@H](C)C1COC (stereo not given in full)"
  Measured Attribute: "composite z-score"
  Recorded Number: 1.13
- Molecule: "O=C1NC(=O)C2C1C=CC(C(O)c1cccs1)N2Nc1ccccn1 (stereo not given)"
  Measured Attribute: "composite z-score"
  Recorded Number: 0.766
- Molecule: "C=CC[C@@]1(C(=O)NCCN2CCOCC2)N=C(c2ccc(OCCCO)cc2)O[C@@H]1c1ccccc1CN=[N+]=[N-]"
  Measured Attribute: "composite z-score"
  Recorded Number: 0.85
- Molecule: "O=C1OCCC/C=C\\[C@H]2OC34C=CCN(CCN5CCOCC5)C(=O)[C@H]3N(CCO)C(=O)[C@@H]4C12 (stereo not given in full)"
  Measured Attribute: "composite z-score"
  Recorded Number: -1.09
- Molecule: "C=C(/C(=C/C[C@@H](OC(C)=O)c1ccc(CO)o1)c1cnc2ccccc2c1)C(C)C"
  Measured Attribute: "composite z-score"
  Recorded Number: 0.971
- Molecule: "CN1C(=O)C2C=CC(C(O)C3=C[C@H]4C[C@@H](C3)C4(C)C)N(Nc3ccc([N+](=O)[O-])cc3[N+](=O)[O-])C2C1=O (stereo not given in full)"
  Measured Attribute: "composite z-score"
  Recorded Number: 1.16
- Molecule: "[N-]=[N+]=NCc1ccccc1C[C@]1(C(=O)NCc2ccccc2)COC(c2ccc(OCCCO)cc2)=N1"
  Measured Attribute: "composite z-score"
  Recorded Number: 0.612
